Reference source for all entries: ChEMBL document CHEMBL1156925

- target or system: ALK tyrosine kinase receptor (Homo sapiens)
- Sequence (Q9UM73 whole entry): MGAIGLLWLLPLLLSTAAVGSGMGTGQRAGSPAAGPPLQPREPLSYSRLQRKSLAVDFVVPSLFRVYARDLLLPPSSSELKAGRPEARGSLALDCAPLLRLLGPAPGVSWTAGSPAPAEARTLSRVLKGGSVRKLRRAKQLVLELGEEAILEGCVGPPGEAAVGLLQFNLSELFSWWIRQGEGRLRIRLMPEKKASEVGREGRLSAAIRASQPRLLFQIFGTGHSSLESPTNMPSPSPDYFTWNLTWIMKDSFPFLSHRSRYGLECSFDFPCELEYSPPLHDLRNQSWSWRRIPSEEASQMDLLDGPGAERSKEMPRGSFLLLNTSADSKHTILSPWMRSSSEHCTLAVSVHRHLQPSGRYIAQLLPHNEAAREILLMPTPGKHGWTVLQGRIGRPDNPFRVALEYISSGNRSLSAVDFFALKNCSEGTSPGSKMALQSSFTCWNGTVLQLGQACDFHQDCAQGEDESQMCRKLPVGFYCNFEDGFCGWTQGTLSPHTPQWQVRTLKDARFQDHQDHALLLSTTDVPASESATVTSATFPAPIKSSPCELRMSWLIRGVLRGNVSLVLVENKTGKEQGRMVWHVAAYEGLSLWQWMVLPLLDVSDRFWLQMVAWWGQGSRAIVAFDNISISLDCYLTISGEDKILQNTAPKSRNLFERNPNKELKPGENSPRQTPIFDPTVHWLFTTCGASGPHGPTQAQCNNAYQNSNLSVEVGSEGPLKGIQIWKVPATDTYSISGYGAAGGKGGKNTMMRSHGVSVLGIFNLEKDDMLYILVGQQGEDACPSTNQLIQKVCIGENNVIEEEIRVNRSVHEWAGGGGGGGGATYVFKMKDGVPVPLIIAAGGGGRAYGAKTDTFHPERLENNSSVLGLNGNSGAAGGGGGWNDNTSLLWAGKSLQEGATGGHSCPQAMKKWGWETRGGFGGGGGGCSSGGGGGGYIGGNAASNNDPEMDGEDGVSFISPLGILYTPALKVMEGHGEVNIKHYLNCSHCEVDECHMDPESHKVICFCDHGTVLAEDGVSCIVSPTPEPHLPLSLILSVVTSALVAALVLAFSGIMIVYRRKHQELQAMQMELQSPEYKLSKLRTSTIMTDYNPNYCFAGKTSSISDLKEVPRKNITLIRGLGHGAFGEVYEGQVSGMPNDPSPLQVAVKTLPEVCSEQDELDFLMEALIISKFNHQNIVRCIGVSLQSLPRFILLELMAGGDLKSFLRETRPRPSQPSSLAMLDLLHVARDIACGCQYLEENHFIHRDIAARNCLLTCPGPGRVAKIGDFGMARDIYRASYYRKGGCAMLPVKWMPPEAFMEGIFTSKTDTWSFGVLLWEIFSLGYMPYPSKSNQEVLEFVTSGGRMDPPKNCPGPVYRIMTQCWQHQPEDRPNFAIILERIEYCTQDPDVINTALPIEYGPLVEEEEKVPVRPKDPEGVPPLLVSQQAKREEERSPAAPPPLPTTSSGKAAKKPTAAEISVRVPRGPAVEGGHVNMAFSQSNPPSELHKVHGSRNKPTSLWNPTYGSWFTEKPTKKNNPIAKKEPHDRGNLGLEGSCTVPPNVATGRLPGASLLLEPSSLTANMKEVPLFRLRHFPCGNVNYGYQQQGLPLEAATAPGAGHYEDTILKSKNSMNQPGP
pIC50: −log10 of the molar value.
property name: pIC50

(A) CCOC(=O)c1c(C)[nH]c(/C=C2\C(=O)Nc3ccccc32)c1C
(B) CN(C)S(=O)(=O)c1ccc2c(c1)/C(=C/c1cc3c([nH]1)CCCC3)C(=O)N2
Problem: For this pair, A and B , which shows a numerically higher pIC50? // output: label of the selected item
Result: A

###

- assay overview: cells
- test settings: Mus musculus, BaF3
property name: IC50 (nM)

CCOC(=O)c1c(C)[nH]c(/C=C2\C(=O)Nc3ccccc32)c1C    2600

(1) CN(C)S(=O)(=O)c1ccc2c(c1)/C(=C/c1cc3c([nH]1)CCCC3)C(=O)N2
(2) Cc1cccc2c1/C(=C/c1ccc(N(C)C)c3ccccc13)C(=O)N2
(3) CCN(CC)CCNC(=O)c1c(C)[nH]c(/C=C2\C(=O)Nc3ccc(F)cc32)c1C
Problem: Please list these in order of increasing IC50. Thank you! # the answer lists labels in the order requested
Result: 1, 3, 2
(1: 180 nM, 3: 1200 nM, 2: 10000 nM)
